Origin of measurements: PubChem BioAssay (NCI)

# Test system: RXF 393 renal
# assayRemarks: NCI tumour cell line growth inhibition, 48 h
quantityKind: log10(TGI) (log10 of the value in µM)
// stored as log10 of TGI expressed in µM

Tell us which log10(TGI) value is on record for CCOC(=O)c1c(-c2ccccc2)nc2c(OC)nccn12 1.91

Report log10(TGI), nothing else, for this compound: COC(=O)CS(=O)c1ccccc1 (stereo unspecified) 1.69

Please report log10(TGI) for the following compound: CCC[CH2][Sn]1([CH2]CCC)[O]CC(CN2CCOCC2)[O]1 (stereo unspecified) 0.52

Query log10(TGI) for Cc1ccc(C(=O)C#Cc2c[nH]c(=O)[nH]c2=O)cc1 1.09

Tell me its log10(TGI) given O=C(Nc1ccc(OCc2nnc(-c3ccccc3)o2)c(F)c1)Nc1ccc(Cl)c(C(F)(F)F)c1 as the entry. 0.95
